Quick reference for pKd among some binders
- System: 6D8 scFv (mouse)
- Sequence (VH, as listed by the source, chain 1 of 2): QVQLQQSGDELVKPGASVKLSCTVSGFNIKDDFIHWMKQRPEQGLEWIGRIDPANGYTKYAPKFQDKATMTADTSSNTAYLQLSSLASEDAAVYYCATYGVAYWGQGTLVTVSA
- Sequence (VL, as listed by the source, chain 2 of 2): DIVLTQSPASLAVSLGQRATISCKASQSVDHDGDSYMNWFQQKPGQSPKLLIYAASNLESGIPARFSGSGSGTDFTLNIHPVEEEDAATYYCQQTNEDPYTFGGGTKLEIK
- Assay text: ITC
pKd: −log10 of the molar value.

>  <Binder>
NAYNMSIRRSMANEGSN [FC27-MSP2_(14-30)]

>  <pKd>
7.80

$$$$
>  <Binder>
NAYNMSIRRSMAESKPS [3D7-MSP2_(14-30)]

>  <pKd>
7.19

$$$$
